System: SF-295 CNS
Assay: NCI tumour cell line growth inhibition, 48 h
Documented TGI across a set of compounds

CCCCCC(=O)OCC1(CO)C/C(=C\CC(C(C)C)C(C)C)C(=O)O1 (stereo not drawn)    > 100 µM
COC(=O)C1C2C=CC(C2)N1S(=O)(=O)c1ccccc1 (stereo not drawn)    > 100 µM
O=C(O)C1CCCCN1C(=O)c1ccccc1 (stereo not drawn)    > 100 µM

[ask] Fill in the blank: the reported TGI of `Cc1c(C(=O)O)c2cc3ccccc3cc2c(=O)n1C` is ____.
[reply] > 10 µM

[ask] What TGI value was documented for this compound, CN(c1ccccc1)C1C(=O)N(c2ccccc2)C1/C=C/c1ccccc1 (stereo not drawn) ?
[reply] > 100 µM

[ask] Requested read-out: TGI. Entry: `CC(C)N=C(NC#N)NS(=O)(=O)c1cnccc1Nc1ccc(Cl)cc1`
[reply] > 100 µM

[ask] What TGI value was documented for this compound, `N#CC(C#N)=C(N)/C(C#N)=C/c1cc(O)c(O)c(Br)c1` ?
[reply] > 100 µM

[ask] # query: TGI of entry `O=C(NNC(=O)c1ccncc1)c1ccncc1`
[reply] > 100 µM

[ask] Can you share its TGI? I mean this compound: NCC(NC(=O)OCc1ccccc1)C(=O)O (stereo not drawn)
[reply] > 50 µM

[ask] Consider the compound shown here: CC(C)c1cccc(C(C)C)c1NC(=O)C(=O)C(C(=O)c1ccc2ccccc2c1)C1OC(=O)c2ccccc21 (stereo not drawn) What is its recorded TGI?
[reply] > 100 µM

[ask] Need TGI, item NC(=O)C(NC=O)c1ccccc1 (stereo not drawn)
[reply] > 100 µM

[ask] Fill in the blank: the reported TGI of `COc1cc2c(cc1OC)C1(c3ccccc3)CN(C2)Cc2cc(OC)c(OC)cc21` is ____.
[reply] > 100 µM

[ask] # lookup: TGI of `COC(=O)N/N=C/c1oc(-c2ccccc2)c(-c2ccccc2)c1[N+](=O)[O-]`
[reply] > 100 µM
